# TARGET OF ASSAY: Human recombinant sEH (Homo sapiens (Human), UniProt P34913)
# Sequence (P34913 whole entry): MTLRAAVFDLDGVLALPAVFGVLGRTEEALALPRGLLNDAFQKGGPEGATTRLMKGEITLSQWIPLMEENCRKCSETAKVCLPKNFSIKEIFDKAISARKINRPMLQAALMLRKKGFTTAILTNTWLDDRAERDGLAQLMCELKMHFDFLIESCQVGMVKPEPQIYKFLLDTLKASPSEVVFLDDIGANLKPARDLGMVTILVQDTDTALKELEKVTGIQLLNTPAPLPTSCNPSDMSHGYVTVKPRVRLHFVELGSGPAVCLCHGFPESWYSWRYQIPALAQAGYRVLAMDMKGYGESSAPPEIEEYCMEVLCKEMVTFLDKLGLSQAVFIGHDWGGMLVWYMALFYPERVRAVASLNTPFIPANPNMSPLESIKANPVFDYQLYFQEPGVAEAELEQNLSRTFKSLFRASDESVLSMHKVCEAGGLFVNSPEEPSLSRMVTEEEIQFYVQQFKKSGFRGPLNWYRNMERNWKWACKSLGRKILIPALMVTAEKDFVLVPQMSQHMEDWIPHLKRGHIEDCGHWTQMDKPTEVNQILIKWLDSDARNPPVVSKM
# TEST METHOD NOTES: Soluble epoxide hydrolase inhibition (PHOME fluorescent substrate)
# Assay type: biochemical
# CONDITION INFO: read-out: sEHi IC50
pIC50: −log10 of the molar value.
ASSAY ENDPOINT: pIC50

Item: "CCCCCCC(=O)N(CCCCCOc1cccc2sc(NC(C)=O)nc12)C(C)C" | pIC50: < 6.30

###

Each entry below lists one item and its recorded pIC50 value.
# TARGET OF ASSAY: Human recombinant sEH (Homo sapiens (Human), UniProt P34913)
# TEST METHOD NOTES: Soluble epoxide hydrolase inhibition (PHOME fluorescent substrate)
# Type: biochemical
# CONDITION INFO: human recombinant sEH, PHOME substrate, 0.1 to 1000 nM; read-out: sEHi IC50
pIC50: −log10 of the molar value.

Field: example entries. Status: answers known.
INSERT INTO assay_data (smiles_repr, recorded_measurement) VALUES
  ('CCCCCCC(=O)N(CCCC/C=C\CCCCCCC(=O)NCC(=O)O)C(C)C', '< 6.30'),
  ('CCCCCCC(=O)N(CCCC/C=C\CCCCCCc1nnn[nH]1)C(C)C', '< 6.30');

Then there is this molecule:
The molecule "CCCCNC(=O)C(=O)NCCCCCOc1cccc2sc(NC(C)=O)nc12" on Human recombinant sEH (Homo sapiens (Human), UniProt P34913): pIC50 was < 6.30
